Data provenance is paper PMC6270661.

System: L. major promastigotes
Assay: AlamarBlue assay, antileishmanial activity against L. major promastigotes
Assay type: cell-based, Leishmania major
Conditions: Leishmania major, mean of two independent experiments
Some compounds, each annotated with its measured IC50.

compound | study-system | IC50
Cc1ccc(C(C)C)c(OC(=O)/C=C/c2ccc(O)c(O)c2)c1 | L. major promastigotes | 57.6 µM
COc1ccc(/C=C/C(=O)O[C@@H]2CC3CCC2(C)C3(C)C)cc1 (stereo partly drawn) [Compound 16, 4-Methoxycinnamic Acid (−)-Bornyl Ester] | L. major promastigotes | 60.9 µM
CC1(C)C2CCC1(C)C(OC(=O)C=Cc1ccc(Br)cc1)C2 (stereo not drawn) [Compound 4, 4-Bromocinnamic Acid (−)-bornyl Ester] | L. major promastigotes | > 100 µM
COc1ccc(C=CC(=O)OC2CC3CCC2(C)C3(C)C)cc1O (centres unmarked) | L. major promastigotes | 60.6 µM
CC1(C)C2CCC1(C)C(OC(=O)CCc1ccccc1)C2 (centres unmarked) | L. major promastigotes | 50.2 µM
CC1(C)C2CCC1(C)C(OC(=O)C=Cc1ccc(OCc3ccccc3)cc1)C2 (centres unmarked) | L. major promastigotes | > 100 µM
CC1(C)C2CCC1(C)C(OC(=O)C=Cc1ccccc1)C2 (stereo not drawn) [Compound 15, Cinnamic Acid (−)-Bornyl Ester] | L. major promastigotes | 39.6 µM
CC1(C)C2CCC1(C)[C@H](OC(=O)/C=C/c1cccc(Cl)c1Cl)C2 (some centres unmarked) | L. major promastigotes | 65.6 µM
CC(C)=CCC/C(C)=C/COC(=O)/C=C/c1ccccc1 | L. major promastigotes | > 100 µM
CC1(C)C2CCC1(C)C(OC(=O)C=Cc1ccc(Cl)cc1)C2 (stereo not drawn) [Compound 3, 4-Chlorocinnamic Acid (−)-bornyl Ester] | L. major promastigotes | 71.2 µM
C=CCc1ccc(OC(=O)/C=C/c2ccccc2)c(OC)c1 | L. major promastigotes | > 100 µM
O=C(/C=C/c1ccccc1)OC12CC3CC(CC(C3)C1)C2 | L. major promastigotes | 60 µM
CC1(C)C2CCC1(C)C(OC(=O)C=Cc1ccc([N+](=O)[O-])cc1)C2 (centres unmarked) | L. major promastigotes | > 100 µM
CC(C)=CCCC(C)(OC(=O)C=Cc1ccccc1)C1CC=C(C)CC1 (centres unmarked) | L. major promastigotes | > 100 µM

----------
System: L. donovani promastigotes
Test: Quantitative colorimetric assay against L. donovani promastigotes
Type: cell-based
Conditions: Leishmania donovani, mean of two independent experiments
Some compounds, each annotated with its measured IC50.

compound | IC50
CC1CCC(C(C)C)C(OC(=O)/C=C/c2ccc(O)c(O)c2)C1 (stereo not shown) | 79.4 µM
COc1ccc(/C=C/C(=O)Oc2cc(C)ccc2C(C)C)cc1O | 79.6 µM
CC1(C)C2CCC1(C)C(OC(=O)C=Cc1ccc(O)c(O)c1)C2 (stereo not shown) | 34.8 µM
C=CCc1ccc(OC(=O)/C=C/c2ccccc2)c(OC)c1 | 80.3 µM
CC(C)=CCC/C(C)=C/COC(=O)/C=C/c1ccccc1 | 41.9 µM
CC1(C)C2CCC1(C)[C@H](OC(=O)/C=C/c1ccc(O)c(O)c1)C2 (stereo partly drawn) [Compound 1, Caffeic Acid (−)-bornyl Ester] | 27.3 µM
CN(C)c1ccc(C=CC(=O)OC2CC3CCC2(C)C3(C)C)cc1 (stereo not shown) | > 100 µM

----------
Tested on: L. donovani promastigotes
Assay: Quantitative colorimetric assay against L. donovani promastigotes
Type: cell-based
Details: Leishmania donovani, mean of two independent experiments

compound | scale-unit | bound-operator | IC50
CC1(C)C2CCC1(C)[C@H](OC(=O)/C=C/c1cccc(Cl)c1Cl)C2 (some centres unmarked) [Compound 14] | µM | > | 100
CC1(C)C2CCC1(C)C(OC(=O)C=Cc1ccc([N+](=O)[O-])cc1)C2 (centres unmarked) [Compound 9, 4-Nitrocinnamic Acid Isobornyl Ester] | µM | > | 100
CC1(C)C2CCC1(C)C(OC(=O)C=Cc1ccc(Cl)cc1)C2 (stereo not drawn) [Compound 3, 4-Chlorocinnamic Acid (−)-bornyl Ester] | µM | > | 100
CC1(C)C2CCC1(C)[C@H](OC(=O)/C=C/c1ccc(Cl)cc1Cl)C2 (some centres unmarked) [Compound 17] | µM | > | 100
COc1ccc(/C=C/C(=O)OC2CC(C)CCC2C(C)C)cc1O (centres unmarked) [Compound 13, Isoferulic Acid Menthyl Ester] | µM | > | 100
CC1CCC(C(C)C)C(OC(=O)/C=C/c2ccccc2)C1 (centres unmarked) [Compound 20, Cinnamic Acid Menthyl Ester] | µM | = | 79.7
O=C(/C=C/c1ccccc1)Oc1ccc2ccccc2c1 [Compound 22] | µM | = | 28.7
COc1ccc(C=CC(=O)OC2CC3CCC2(C)C3(C)C)cc1O (centres unmarked) [Compound 8, Isoferulic Acid Isobornyl Ester] | µM | = | 74.5
Cc1ccc(C(C)C)c(OC(=O)/C=C/c2ccc(O)c(O)c2)c1 [Compound 10, Caffeic Acid Thymyl Ester] | µM | = | 42.1
CC1(C)C2CCC1(C)[C@@H](OC(=O)/C=C/c1ccccc1)C2 (some centres unmarked) [Compound 18, Cinnamic Acid Isobornyl Ester] | µM | = | 51.2
C[C@@H]1[C@H](O)[C@@H](C)/C=C/C=C/C=C/C=C/C=C/C=C/C=C/[C@H](O[C@@H]2O[C@H](C)[C@@H](O)[C@H](N)[C@@H]2O)C[C@@H]2O[C@](O)(C[C@@H](O)C[C@@H](O)[C@H](O)CC[C@@H](O)C[C@@H](O)CC(=O)O[C@H]1C)C[C@H](O)[C@H]2C(=O)O [amphotericin B, reference compound] | µM | = | 0.4

----------
Assay: AlamarBlue cytotoxicity assay on J774.1 macrophages
Assay type: cell-based, murine
Conditions: mouse, J774.1 macrophage cell line, mean of two independent experiments
Some molecules, each annotated with its measured IC50.

molecule | IC50
O=C(/C=C/c1ccccc1)Oc1ccc2ccccc2c1 | 44.5 µM
COc1ccc(/C=C/C(=O)Oc2cc(C)ccc2C(C)C)cc1O | 45.6 µM
CC(=O)Oc1ccc(/C=C/C(=O)O[C@@H]2CC3CCC2(C)C3(C)C)cc1OC(C)=O (some centres unmarked) | 2.1 µM
CC1CCC(C(C)C)C(OC(=O)/C=C/c2ccccc2)C1 (centres unmarked) | 44.8 µM
COc1ccc(C=CC(=O)OC2CC3CCC2(C)C3(C)C)cc1O (centres unmarked) | 44.3 µM
Cc1ccc(C(C)C)c(OC(=O)/C=C/c2ccc(O)c(O)c2)c1 | 9.5 µM
COc1ccc(/C=C/C(=O)OC2CC(C)CCC2C(C)C)cc1O (centres unmarked) | 44.6 µM
CC(C)=CCCC(C)(OC(=O)C=Cc1ccccc1)C1CC=C(C)CC1 (centres unmarked) | > 100 µM
CCCCCCCCCCCCCCCCOP(=O)([O-])OCC[N+](C)(C)C [miltefosine, reference compound] | 56.5 µM
CC1(C)C2CCC1(C)[C@H](OC(=O)/C=C/c1ccc(Cl)cc1Cl)C2 (some centres unmarked) | 60.6 µM
O=C(/C=C/c1ccccc1)OC12CC3CC(CC(C3)C1)C2 | 46.7 µM
CN(C)c1ccc(C=CC(=O)OC2CC3CCC2(C)C3(C)C)cc1 (centres unmarked) | > 100 µM
CC1(C)C2CCC1(C)C(OC(=O)C=Cc1ccc(Cl)cc1)C2 (stereo not drawn) [Compound 3, 4-Chlorocinnamic Acid (−)-bornyl Ester] | 49.5 µM
COc1ccc(/C=C/C(=O)O[C@@H]2CC3CCC2(C)C3(C)C)cc1 (stereo partly drawn) [Compound 16, 4-Methoxycinnamic Acid (−)-Bornyl Ester] | 42.6 µM
CC1(C)C2CCC1(C)[C@@H](OC(=O)/C=C/c1ccccc1)C2 (some centres unmarked) | 46 µM
O=C(/C=C/c1ccccc1)OC1CCCCC1 | > 100 µM
CC1(C)C2CCC1(C)C(OC(=O)C=Cc1ccc([N+](=O)[O-])cc1)C2 (centres unmarked) | > 100 µM
CC1(C)C2CCC1(C)C(OC(=O)C=Cc1ccc(Br)cc1)C2 (stereo not drawn) [Compound 4, 4-Bromocinnamic Acid (−)-bornyl Ester] | 54.6 µM
CC1(C)C2CCC1(C)[C@H](OC(=O)/C=C/c1cccc(Cl)c1Cl)C2 (some centres unmarked) | 58.9 µM
CC(C)=CCC/C(C)=C/COC(=O)/C=C/c1ccccc1 | > 100 µM
CC1(C)C2CCC1(C)C(OC(=O)C=Cc1ccc(OCc3ccccc3)cc1)C2 (centres unmarked) | > 100 µM
N=C(N)c1ccc(OCCCCCOc2ccc(C(=N)N)cc2)cc1 [pentamidine, reference compound] | 38.6 µM
CC1CCC(C(C)C)C(OC(=O)/C=C/c2ccc(O)c(O)c2)C1 (centres unmarked) | 1.95 µM
Cc1ccc(C(C)C)c(OC(=O)/C=C/c2ccccc2)c1 | 44.8 µM
CC1(C)C2CCC1(C)C(OC(=O)C=Cc1ccc(O)c(O)c1)C2 (centres unmarked) | 8.8 µM
CC1(C)C2CCC1(C)C(OC(=O)C=Cc1ccccc1)C2 (stereo not drawn) [Compound 15, Cinnamic Acid (−)-Bornyl Ester] | 45.2 µM
CC1(C)C2CCC1(C)C(OC(=O)CCc1ccccc1)C2 (centres unmarked) | > 100 µM
C=CCc1ccc(OC(=O)/C=C/c2ccccc2)c(OC)c1 | 32.2 µM
CC1(C)C2CCC1(C)[C@H](OC(=O)/C=C/c1ccc(O)c(O)c1)C2 (stereo partly drawn) [Compound 1, Caffeic Acid (−)-bornyl Ester] | 8.3 µM
